# protein stability index listing for each entry below
Assay: protein stability index of a GFP-peptide fusion (yeast GPS) (PSI 1-4); higher = more stable; sorted into four equal gates, so the index is relative within each strain
Conditions: doa10∆

{"columns": ["sequence", "protein stability index"],
 "data": [
  ["KNAQYHLLVKQGDGLLT [RPN7]", 1.96],
  ["SRAQILQIHSRKMTTDD [RPT5]", 2.72],
  ["STLGDCLGIKDEEMLTS [GAL11]", 3.17],
  ["HFENAKVIDLDTKLKAH [YIL149C/MLP2]", 2.62],
  ["YNRYRDLMISCLMNQET [MTR3]", 2.44],
  ["SLISVLEASLNSITKDN [YJL039C/NUP192]", 2.46],
  ["RPKKITGWITQSTPVLL [RPN1]", 2.21]
]}

----------
sequences and their reported protein stability index
Test: protein stability index of a GFP-peptide fusion (yeast GPS) (PSI 1-4); higher = more stable; sorted into four equal gates, so the index is relative within each strain
Settings: ubr1∆

{"columns": ["sequence", "protein stability index"],
 "data": [
  ["TAAQVANVELTPSNIRS [RPC34]", 2.87],
  ["DTKNSKSESPSEVLVDT [ISW2]", 3.27],
  ["ERSELLRLFNAPDSEYL [SNF2]", 2.77],
  ["KHITVRLTAKRLIEHDP [SRP14]", 2.65],
  ["GISVPFHSTYLMNGVKP [FAS1]", 1.39],
  ["LRSKTSAGRIESNNPSH [SIR4]", 2.79],
  ["NILFSLWKLLSTVKVSD [YLR018C/POM34]", 1.55],
  ["HAYRDVLAQYHEAKERI [SNF6]", 3.31],
  ["KIVVVRAEALNISGEFF [RPL16B]", 3],
  ["RQRELLIAHQRSAWNNN [GRR1]", 2.16],
  ["TIRLWECGTGTTIHTFN [RPN14]", 1.99],
  ["RLRKRVTIIPLDKIYTR [SMC2]", 1.36],
  ["KYPARRIHTNDNDIMNL [SSN3]", 2.9],
  ["VSVRKHLERNRKDKDAK [RPS13]", 3.28]
]}

----------
Below, each of the sequences is paired with its reported protein stability index value.
Test: protein stability index of a GFP-peptide fusion (yeast GPS) (PSI 1-4); higher = more stable; sorted into four equal gates, so the index is relative within each strain
Conditions: ubr1∆

{"columns": ["sequence", "protein stability index"],
 "data": [
  ["QQFNLHEILSEPAIEEE [MED1]", 3.26],
  ["IVKFKQKEEGRSFTKAI [YLR335W/NUP2]", 3.29],
  ["TGKTLLARACAAQTNAT [RPT5]", 2.61],
  ["HEAKERIRQKEVTAGEA [SNF6]", 2.6],
  ["GLELSNFKSYRGVTKVG [SMC1]", 2.45],
  ["KIIDNPKSFLKKDQSVL [YMR129W/POM152]", 3.2],
  ["RMSYGSHDKKTKCSTVV [SRP14]", 3.33]
]}

----------
Test: protein stability index of a GFP-peptide fusion (yeast GPS) (PSI 1-4); higher = more stable; sorted into four equal gates, so the index is relative within each strain
Settings: pdr5∆
We'd kindly ask you to apply these protein stability index classes: I: < 2; II: ≥ 2 and < 3; III: ≥ 3

{"columns": ["sequence", "discrete label"],
 "data": [
  ["TFTFTAHMGVLLVLLQD [SWP82]", "I"],
  ["LSPPEFLFHAISGREGL [RPO31]", "I"],
  ["TPEYAAEKVKVRDELRK [UBP6]", "I"],
  ["LATAHIYLSRFLIKASV [SSN8]", "I"],
  ["FGNSLICEDPETAKKIT [SMC2]", "II"],
  ["SFSLTTFSPSGKLGQID [PRE8]", "II"],
  ["GGLKSCDLDFPLRENTN [YDL116W/NUP84]", "II"],
  ["NLTPANILNMSMNNDFQ [PGD1]", "III"],
  ["ALIRRDFTLIPRMASVF [CDC53]", "II"],
  ["ILLSHHRASPADVSIKS [POP5]", "III"],
  ["QRIIKELSIRFPQYKLT [ARP7]", "I"],
  ["NFYIQYDPKDGLYKMME [AAR2]", "II"],
  ["NNPKVKTSKRTKRWYKN [RPS11A]", "III"],
  ["VDSLDPFSEGVTFSVMP [SMC4]", "II"],
  ["GYVSSLVEPSKVGQFDQ [FAS1]", "I"],
  ["EKESVEKQHENAVLELG [SMC3]", "III"],
  ["QQGQNMSEQQWREQLRN [ROX3]", "II"],
  ["QEKQEQQEQDKKKKSNH [PRE6]", "I"],
  ["NKTKAVDNTVPSTTLFN [YOR098C/NUP1]", "II"],
  ["STMKENKDLSELVIRLE [YIL149C/MLP2]", "III"],
  ["TDLENSSLFQEKLLETN [ECM29]", "II"],
  ["PRMIELMEFLCVVSTDS [ECM29]", "I"],
  ["HKCDELITLFNKGELET [RPO31]", "III"],
  ["WYLILSIISSKTSCVVE [RGR1]", "I"],
  ["VDLLQFPWLNAIKYRPT [POP3]", "II"],
  ["DNTVRTSANGIVQFTYG [RPO31]", "II"],
  ["EELRGQQTEHETEIKDL [SMC4]", "III"],
  ["QSTPQPDDMVEINSVGN [ITC1]", "III"],
  ["KSKTSTGKERSKKRKLN [SNM1]", "III"],
  ["MMVSYPKIDEDDTWYNL [AAR2]", "III"],
  ["KLKQLLDESSEQKNTAK [YIL149C/MLP2]", "III"],
  ["SVKESTGMSSMSPFLRK [SRB4]", "II"],
  ["KFMELERKTLERQQENL [SWI3]", "III"],
  ["KNLKDTASVEKAEFSKE [YIL149C/MLP2]", "III"],
  ["LANYLTSALSELSGLIS [QCR2]", "I"],
  ["QLLEKAPIPIREDIDDP [BRR2]", "II"],
  ["FIVSGTASDQLFGMCES [PUP3]", "II"],
  ["LNARMFLKYYGAHKFLD [SIR2]", "I"],
  ["WPKTRGVAMNPVDHPHG [RPL2A]", "II"],
  ["DLMDDMSDISDLDDLGF [RPN3]", "I"],
  ["FIPNKQLNCVIDRVNGI [RPN7]", "II"],
  ["DNKIDIYQIHIPYAAKL [RPB2]", "II"],
  ["HARTAAVTHNLYYDEDI [PUP2]", "III"],
  ["ELKIRSKTENVRRLEAQ [RPT6]", "II"],
  ["LEEVEGSCTGKFGYILC [RPB7]", "II"],
  ["IKLGSTAIGIATKEGVV [PUP2]", "I"],
  ["ISNGTINIQKKLEPKEI [SIR4]", "II"],
  ["FELVSDLSYIEFLFESL [ECM29]", "II"],
  ["QYILQIVSFIVNCFHED [YJL039C/NUP192]", "I"],
  ["REHSLQLFRTNKVQIMI [PRP28]", "I"],
  ["KKHLKRLAAPHHWLLDK [RPS4A]", "II"],
  ["CYFRDFEYCRIDGSTSH [ISW2]", "II"]
]}

----------
Test: protein stability index of a GFP-peptide fusion (yeast GPS) (PSI 1-4); higher = more stable; sorted into four equal gates, so the index is relative within each strain
Settings: san1∆
The following sequences are listed with their measured protein stability index values.

{"columns": ["sequence", "protein stability index"],
 "data": [
  ["NDGNNRTNNVPMIKAEE [NUT1]", 2.65],
  ["NENNNNSSEKNNNNNNN [MED2]", 3.04],
  ["NENDSQAIITERLVEFS [YIL149C/MLP2]", 2.83],
  ["NEKMQLLKDIFANNLKS [SIR4]", 1.95],
  ["SASSLVITALKEPPRDR [RPL12A]", 2.66],
  ["VGKRVRYLVGGNKIQKV [RPS7A]", 1.49],
  ["PAGHAGNPTNISSPIVA [YDL088C/ASM4]", 2.67],
  ["TLVEIFLERKCVHMVYE [SSN3]", 1.52],
  ["QTIEMITQIVEKDFCTS [SRB8]", 2.93],
  ["SLKCTDPYELKGEVVLV [ITC1]", 2.44],
  ["LFDAAFYMKKDAVEGVS [RPO31]", 3.31],
  ["DTVIIFDTDWNPHQDLQ [SNF2]", 3.02],
  ["SIGSDILTAEKMRGNGN [RRP4]", 3.38],
  ["LALGCHFQDQKNKKIEV [POP7]", 2.92],
  ["FVNETPRVIEPVYTAQW [PRP8]", 2.19],
  ["VMMDVDSSGVNDLHHSE [RPN3]", 3.35],
  ["NLGEYYAQIGDKDNAEK [RPN7]", 2.49],
  ["DTFYMNVESVGSIPVDQ [RPB3]", 2.67],
  ["CKSLISENEDTKDLLSK [CSE2]", 3.1],
  ["DQLAVSPEQIDASPDSL [YCS4]", 1.65],
  ["SHTDQPANVLLVQSLND [NNF1]", 2.23],
  ["SIVEECDARFDEKTIEE [RPC17]", 3.09],
  ["GGLQKGKLVVSQEMVPR [SIR3]", 2.32],
  ["SFLEGSKALNSILESSM [RGR1]", 3.09],
  ["SKKGSLENNIREFPEYF [RPL10]", 3.29],
  ["DESTIKRIKPNTEITQK [ECM29]", 2.95],
  ["INQIFSPEEQRSLLQEA [GAL11]", 3.53],
  ["EGSWDRGIPRISTLFQR [PRP8]", 3.24],
  ["FDSLRNFIVHSPMLKRI [GRR1]", 2.8],
  ["SSLSAIIVFGYPESISN [YDL088C/ASM4]", 2.16]
]}
